- tgt: IDH1-R132H homodimer enzyme (Homo sapiens (Human), UniProt O75874, R132H)
- Sequence (O75874 whole entry R132H): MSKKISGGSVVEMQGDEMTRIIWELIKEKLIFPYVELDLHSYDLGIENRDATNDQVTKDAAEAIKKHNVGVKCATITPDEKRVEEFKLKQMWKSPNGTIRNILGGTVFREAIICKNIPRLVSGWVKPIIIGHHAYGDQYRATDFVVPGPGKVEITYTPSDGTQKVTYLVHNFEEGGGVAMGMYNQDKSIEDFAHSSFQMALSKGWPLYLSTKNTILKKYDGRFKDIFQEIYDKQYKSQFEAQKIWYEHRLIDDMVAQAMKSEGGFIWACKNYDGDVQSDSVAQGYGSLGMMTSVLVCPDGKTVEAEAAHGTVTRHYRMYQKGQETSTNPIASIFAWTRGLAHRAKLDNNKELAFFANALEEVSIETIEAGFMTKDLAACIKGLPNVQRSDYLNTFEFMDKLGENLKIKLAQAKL
- protocol details: In vitro assay IDH1-R132H homodimer, NADPH depletion assay with NADPH/NADP preincubation
- condition info: 5 μM NADPH and 37.5 μM NADP
pIC50: −log10 of the molar value.
pIC50 values, listed per item

Example results:
- molecule: "FC1(F)CC(Nc2nc(NC3CC(F)(F)C3)nc(-c3cncc(Cl)n3)n2)C1 [Compound 144]"
  pIC50: "> 7.30"
- molecule: "Fc1cc(F)cc(Nc2nc(NC3CC(F)(F)C3)nc(-n3ccc(C(F)(F)F)n3)n2)c1 [Compound 106]"
  pIC50: "> 7.30"
- molecule: "FC1(F)CC(CNc2nc(Nc3ccnc(C(F)(F)F)c3)nc(-c3cccc(C(F)(F)F)n3)n2)C1 [Compound 221]"
  pIC50: "6.00 to 7.00"
- molecule: "FC1(F)CCC(Nc2nc(NC3CN(c4ccccn4)C3)nc(-c3cccc(C(F)(F)F)n3)n2)C1 (stereo not shown) [Compound 238]"
  pIC50: "6.00 to 7.00"
- molecule: "FC(F)c1cccc(-c2nc(NC3CC(F)(F)C3)nc(NC3CC(F)(F)C3)n2)n1 [Compound 145]"
  pIC50: "> 7.30"
- molecule: "FC1(F)CC[C@@H](Nc2nc(Nc3ccnc(C(F)(F)F)c3)nc(-c3cccc(C(F)(F)F)n3)n2)C1 [Compound 172]"
  pIC50: "> 7.30"

**Query** Output pIC50 of Fc1cc(F)cc(Nc2nc(N[C@H]3CCC(F)(F)C3)nc(-c3cncc(C(F)(F)F)n3)n2)c1 [Compound 368]
**Result** > 7.30

**Query** Output pIC50 of FC1(F)CCC(Nc2nc(NC3CCC(F)(F)CC3)nc(-n3ccc(C(F)(F)F)n3)n2)CC1 [Compound 176]
**Result** 6.00 to 7.00

**Query** Output pIC50 of Fc1cc(F)cc(Nc2nc(NC3CC(F)(F)C3)nc(-c3nc(F)ccc3F)n2)c1 [Compound 195]
**Result** 7.00 to 7.30

**Query** Output pIC50 of CCC(Nc1nc(NC(CC)C2CC2)nc(-c2cccc(Cl)n2)n1)C1CC1 (stereo not shown) [Compound 110]
**Result** 7.00 to 7.30

###

IC50 values, listed per item
- tgt: IDH1-R132H homodimer enzyme (Homo sapiens (Human), UniProt O75874, R132H)
- protocol details: In vitro assay IDH1-R132H homodimer, NADPH depletion assay with NADPH/NADP preincubation
- condition info: 5 μM NADPH and 37.5 μM NADP

Example results:
- compound: "CC(Nc1nc(NC(C)C(F)(F)F)nc(-n2ccc(C(F)(F)F)n2)n1)C(F)(F)F (stereo not drawn) [Compound 141]"
  IC50: "< 50 nM"
- compound: "CC(F)(F)c1nc(-c2nc(NC3CCC(F)(F)CC3)nc(NC3CCC(F)(F)CC3)n2)cs1 [Compound 283]"
  IC50: "> 1000 nM"

**Query** Output IC50 of CCC(Nc1nc(NC(CC)C(F)(F)F)nc(-c2cccc(Cl)n2)n1)C(F)(F)F (stereo not drawn) [Compound 103]
**Result** < 50 nM

###

- Tested on: HT1080 cells
- protocol details: Cellular assay for IDH1m R132C inhibitors, 2-HG by LC-MS in HT1080 cells
- Type: cell-based
- condition info: Homo sapiens, HT-1080
pIC50: −log10 of the molar value.
experimental readout: pIC50

Example results:
- molecule: "O=C1C[C@H](Nc2nc(NC3CCC(F)(F)C3)nc(-c3cccc(C(F)(F)F)n3)n2)CN1c1ccccn1 (some centres unmarked) [Compound 239]"
  experimental readout: "pIC50"
  reported value: "6.00 to 7.00"
- molecule: "N#CC1(c2cc(Nc3nc(NC4CC(F)(F)C4)nc(-n4ccc(C(F)(F)F)n4)n3)ccn2)CC1 [Compound 169]"
  experimental readout: "pIC50"
  reported value: "> 7.30"
- molecule: "FC1(F)CCC(Nc2nc(NC3CCC(F)(F)C3)nc(-c3nccc(C(F)(F)F)n3)n2)C1 (centres unmarked) [Compound 237]"
  experimental readout: "pIC50"
  reported value: "6.00 to 7.00"
- molecule: "C[C@@H](Nc1nc(N[C@H](C)C(F)(F)F)nc(-c2cncc(C(F)(F)F)n2)n1)C(F)(F)F [Compound 386]"
  experimental readout: "pIC50"
  reported value: "> 7.30"

**Query** Output pIC50 of C[C@@H](Nc1nc(N[C@H](C)C(F)(F)F)nc(-c2cccc(Cl)n2)n1)C(F)(F)F [Compound 101]
**Result** > 7.30
